System: A549 cells
Test Description: Proliferation assay (MTT), A549
Assay type: cell-based
Run Conditions: Homo sapiens, NSCLC cell line, 48 h, mean ± S.E.M., read-out: IC50 against cell proliferation, A549
pIC50: −log10 of the molar value.
Measured Property: pIC50

INSERT INTO measurements (molecule, comparison_operator, recorded_number) VALUES
  ('COc1cc2nccc(Oc3ccc(NC(=O)C4(C(=O)Nc5ccc(F)cc5)CC4)nc3)c2cc1OC [Compound 4]', '=', 4.91),
  ('COc1cc2nccc(Oc3c(C)nc(NC(=O)C4(C(=O)Nc5ccc(F)cc5)CC4)c(C)c3C)c2cc1OC [Compound 3]', '<', 4.00);

----------
Test Description: Cytotoxicity assay (MTT), H6c7 normal pancreatic duct epithelial cells
Format: cell-based
Run Conditions: normal human pancreatic duct epithelial cells, mean ± S.E.M., read-out: IC50 against cell viability (cytotoxicity), H6c7
Known IC50 at 48 h of a selection of compounds
Measured Property: IC50 at 48 h (µM)

INSERT INTO measurements (compound, units_of_measure, comparison_operator, recorded_number) VALUES
  ('COc1cc2nccc(Oc3ccc(NC(=O)C4(C(=O)Nc5ccc(F)cc5)CC4)cc3)c2cc1OC [Cabozantinib, cabozantinib, reference compound]', 'µM', '=', 39.4),
  ('COc1cc2nccc(Oc3ccc(NC(=O)C4(C(=O)Nc5ccc(F)cc5)CC4)nc3)c2cc1OC [Compound 4]', 'µM', '=', 19.9),
  ('COc1cc2nccc(Oc3c(C)nc(NC(=O)C4(C(=O)Nc5ccc(F)cc5)CC4)c(C)c3C)c2cc1OC [Compound 3]', 'µM', '>', 100);

Taken from paper PMC8468607.
